Value source: ChEMBL document CHEMBL2157987

Tested on: K562
Experiment: Cytotoxicity against human K562 cells assessed as cell growth at 10 uM after 48 hrs by SRB assay
Assay type: functional
Settings: K562, 48 h, read-out: Activity
Listed below: growth at 10 µM values for each entry.
measure: growth at 10 µM (%)

compound=O=C(CCc1nnc2sc(-c3cc(O)c(O)c(O)c3)nn12)c1nc2ccccc2[nH]1 measure="growth at 10 µM" unit_of_measurement=% reported_measurement=8.3
compound=O=C(CCc1nnc(/C=C/c2ccccc2)o1)c1nc2ccccc2[nH]1 measure="growth at 10 µM" unit_of_measurement=% reported_measurement=24.6
compound=O=C(CCc1nnc2sc(/C=C/c3ccccc3)nn12)c1nc2ccccc2[nH]1 measure="growth at 10 µM" unit_of_measurement=% reported_measurement=2.17
compound=Nc1cc(Br)c(-c2nn3c(CCC(=O)c4nc5ccccc5[nH]4)nnc3s2)c(Br)c1 measure="growth at 10 µM" unit_of_measurement=% reported_measurement=7.05
